# assay-overview: Pharmacokinetic study in rats
# Format: in vivo
# condition-context: rat; single oral gavage 20 mg/kg; male Sprague-Dawley rats; plasma
observed-property: Cmax (ng/mL)
Write the number in ng/mL without appending the unit.

QUERY: Query: Cmax; subject: COc1ccc(-c2nc(N3CCOCC3)c3sc(CN(C)c4ncc(C(=O)NO)cn4)cc3n2)cn1 [Compound 1]
RESULT: 39.5

###

# System: Daudi
# assay-overview: Cell proliferation assay Daudi
# Assay type: cell-based
# condition-context: Homo sapiens, B-Cell Lymphoma, 72 hours, read-out: IC50 antiproliferative activity
# IC50 per record follows

QUERY: Notebook entry, Daudi assay: IC50 of COc1ccc(-c2nc(N3CCOCC3)c3sc(CN(C)c4ncc(C(=O)NO)cn4)cc3n2)cn1 [Compound 1] = ?
RESULT: 0.01 to 0.1 µM

Okay, now this compound:
QUERY: Notebook entry, Daudi assay: IC50 of CS(=O)(=O)N1CCN(Cc2cc3nc(-c4cccc5[nH]ncc45)nc(N4CCOCC4)c3s2)CC1 [GDC-0941, reference compound] = ?
RESULT: > 10 µM
